TESTED_SYSTEM: T1, cell surface human mesothelin (MSLN) (human, UniProt Q13421 296-598)
T1 construct: whole, on cells; also called cell surface MSLN
T1 sequence (Q13421 other isoform, or with tags, fused parts or gaps limits assumed): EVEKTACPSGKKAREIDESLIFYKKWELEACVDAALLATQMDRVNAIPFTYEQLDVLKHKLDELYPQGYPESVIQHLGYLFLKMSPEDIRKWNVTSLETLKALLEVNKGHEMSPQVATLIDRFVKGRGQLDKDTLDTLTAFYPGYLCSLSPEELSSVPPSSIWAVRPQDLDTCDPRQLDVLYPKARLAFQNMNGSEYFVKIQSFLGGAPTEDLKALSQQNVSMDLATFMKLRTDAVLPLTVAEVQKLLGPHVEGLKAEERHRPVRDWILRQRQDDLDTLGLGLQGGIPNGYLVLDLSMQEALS
TEST_NAME: flow cytometry, NCI-H226 cells
Assign pEC50 to each entry below.
Note: pEC50 values are expressed as the negative base-10 logarithm of concentration in M.

GET /value?item= FS22-053-008-AA/FS28-256-026 mAb^2 (bispecific antibody, human IgG1, kappa, L234A L235A, V domains shown) VH: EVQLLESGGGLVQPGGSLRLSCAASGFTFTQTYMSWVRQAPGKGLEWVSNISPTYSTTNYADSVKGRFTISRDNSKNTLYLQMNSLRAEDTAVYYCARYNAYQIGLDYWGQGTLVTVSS VL: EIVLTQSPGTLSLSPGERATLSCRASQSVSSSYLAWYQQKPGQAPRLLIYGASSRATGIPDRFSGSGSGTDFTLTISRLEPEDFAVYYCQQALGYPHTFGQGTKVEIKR &field=pEC50 returns 8.61

GET /value?item= FS22-053-008-AA/FS28-256-023 mAb^2 (bispecific antibody, human IgG1, kappa, L234A L235A, V domains shown) VH: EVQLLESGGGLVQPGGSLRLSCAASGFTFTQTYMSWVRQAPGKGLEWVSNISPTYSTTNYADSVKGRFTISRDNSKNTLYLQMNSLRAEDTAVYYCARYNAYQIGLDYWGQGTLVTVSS VL: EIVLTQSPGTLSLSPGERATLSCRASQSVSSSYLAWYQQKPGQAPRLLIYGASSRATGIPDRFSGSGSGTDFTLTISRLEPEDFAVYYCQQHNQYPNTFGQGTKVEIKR &field=pEC50 returns 8.48
